- Assay name: NCI Yeast Anticancer Drug Screen. Data for the CLN2oe strain (AID 163);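 note: 0% = growth of vehicle-only control cultures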
- Experimental conditions: S. cerevisiae CLN2oe strain, at 3.7 µM, active compounds read high
The panel holds about 79,000 compounds, 15% with a hit somewhere; the sample as a whole holds those more often.
Measurement kind: growth inhibition (%)
All answers are understood in %, so give the number only.

{"columns": ["Compound", "growth inhibition [%]"],
 "data": [
  ["O=Cc1cccc2ccc3ccccc3c12", 0],
  ["CC(C)(CN1CCCCC1)C(=O)CC(SCCS(=O)(=O)O)c1ccc(Br)cc1 (stereo not given)", 4],
  ["Cc1ccc(-c2ccc(Nc3c4ccccc4nc4ccccc34)cc2)cn1", 19],
  ["O=C(O)c1cccc(-c2c3ccc(=O)cc-3oc3cc(O)ccc23)c1", -13],
  ["CSc1nc(=S)[nH]c2c1c(C)nn2-c1ccccc1", 0]
]}

Which growth inhibition is listed for "CC(=O)[O][Bi]([c]1ccccc1)[c]1ccccc1" ?
16

---

- Assay name: NCI Yeast Anticancer Drug Screen. Data for the wt1 strain (AID 149);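 note: 0% = growth of vehicle-treated wt1 cultures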
- Experimental conditions: S. cerevisiae wt1 strain (SPY 50644) growth inhibition; at 33.0 µM; active compounds read high
The panel holds about 79,000 compounds, 15% with a hit somewhere; the sample as a whole holds those more often.
Measurement kind: growth inhibition (%)
Enter your answer as a number in %; do not include the unit.

Examples with their reported growth inhibition follow.
{"columns": ["Molecule", "Unit name", "growth inhibition"],
 "data": [
  ["CCOP(=O)(OCC)C(Cc1ccccc1)N=C(c1ccccc1)c1ccccc1 (stereo not drawn)", "%", 95],
  ["COc1ccc(C2c3cc4c(cc3OC(C)(O)C2C)OCO4)c(OC)c1 (stereo not drawn)", "%", -2],
  ["COc1ccc2nc3c([N+](=O)[O-])ccc(NCCN(C)C)c3c(NCCN(C)C)c2c1", "%", -2],
  ["[O-][n+]1c2ccc(O)cc2nc2ccc(Br)cc21", "%", 45],
  ["CNC1C(OC2C(OC3C(O)C(O)C(N=C(N)N)C(O)C3N=C(N)N)OC(C)C2(O)CO)OC(CO)C(O)C1O (stereo not drawn)", "%", 10]
]}

// growth inhibition lookup, key: "O=C(/C=C/c1cccc(Br)c1)c1cccs1"
98

---

- Assay name: NCI Yeast Anticancer Drug Screen. Data for the rad50 strain (AID 155);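 note: 0% = growth of vehicle-only cultures of the same strain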
- Experimental conditions: S. cerevisiae rad50 strain growth inhibition; at 1.2 µM; active compounds read high
Compounds without any hit were thinned out: in the full panel of roughly 79,000, 15% have a hit.
Measurement kind: growth inhibition (%)
Kindly provide the numeric value in % only, without the unit symbol.

Consider the following illustrative entries.
{"columns": ["Molecule", "Unit name", "growth inhibition"],
 "data": [
  ["Cc1ccc(S(=O)(=O)NC(=O)NC2=NC(C)(C)N(c3ccc(Cl)c(Cl)c3)C(N)=N2)cc1", "%", -2],
  ["S=C(Nc1ccc(Cl)c(Cl)c1)SCc1ccc2c(c1)OCO2", "%", -4],
  ["S=c1[nH]nc(Nc2ccc(Cl)cc2)s1", "%", -7],
  ["N#Cc1c(N)[nH]c2ccc(Sc3ccccc3)cc12", "%", 1]
]}

Item under review: "Cc1ccc(CCC2=CCCc3c2ccc2ccccc32)cc1" . Reported growth inhibition?
-1

Any idea what its growth inhibition is? The molecule is "CC(=O)OCc1ccc(O)c(C=O)c1"
-5

Could you share which growth inhibition value was measured for "Cc1ccc(S(=O)(=O)NCCSS(=O)(=O)c2ccc(C)cc2)cc1" ?
9
